tested on: RAW264.7; experiment: Antiinflammatory activity against mouse RAW264.7 assessed as inhibition of LPS-induced NO production after 24 hrs; format: functional, cell-based; settings: RAW264.7, 24 h
Reported Metric: IC50 (µM)

[[record]]
smiles_representation = "COC(=O)[C@@H](N)CCCNC(=N)N[N+](=O)[O-]"
system_under_test = "RAW264.7"
output_unit = "µM"
observed_measurement = 193


* * *

tested on: RAW264.7; assay: Antiinflammatory activity against mouse RAW264.7 assessed as inhibition of IFN-gamma-induced NO production after 24 hrs; format: functional, cell-based; details: RAW264.7, 24 h
pIC50: −log10 of the molar value.
Reported Metric: pIC50

[[record]]
smiles_representation = "COC(=O)[C@@H](N)CCCNC(=N)N[N+](=O)[O-]"
system_under_test = "RAW264.7"
observed_measurement = 3.93

